Reference source for all entries: patent US7713994B2

assayed-target: cyclin B/CDK1 enzyme (Homo sapiens, UniProt P06493)
Construct: purchased New England BioLabs; host or cells: Sf9 insect cells, recombinant baculovirus
Sequence (P06493 whole entry): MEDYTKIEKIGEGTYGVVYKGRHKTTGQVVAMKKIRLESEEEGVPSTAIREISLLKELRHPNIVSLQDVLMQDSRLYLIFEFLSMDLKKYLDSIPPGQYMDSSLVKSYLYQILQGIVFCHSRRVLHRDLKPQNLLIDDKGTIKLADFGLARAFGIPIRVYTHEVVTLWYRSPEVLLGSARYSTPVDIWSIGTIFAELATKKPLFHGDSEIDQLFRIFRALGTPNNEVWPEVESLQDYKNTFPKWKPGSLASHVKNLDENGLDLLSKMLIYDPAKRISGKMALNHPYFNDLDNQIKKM
Sequence (P14635 whole entry partner): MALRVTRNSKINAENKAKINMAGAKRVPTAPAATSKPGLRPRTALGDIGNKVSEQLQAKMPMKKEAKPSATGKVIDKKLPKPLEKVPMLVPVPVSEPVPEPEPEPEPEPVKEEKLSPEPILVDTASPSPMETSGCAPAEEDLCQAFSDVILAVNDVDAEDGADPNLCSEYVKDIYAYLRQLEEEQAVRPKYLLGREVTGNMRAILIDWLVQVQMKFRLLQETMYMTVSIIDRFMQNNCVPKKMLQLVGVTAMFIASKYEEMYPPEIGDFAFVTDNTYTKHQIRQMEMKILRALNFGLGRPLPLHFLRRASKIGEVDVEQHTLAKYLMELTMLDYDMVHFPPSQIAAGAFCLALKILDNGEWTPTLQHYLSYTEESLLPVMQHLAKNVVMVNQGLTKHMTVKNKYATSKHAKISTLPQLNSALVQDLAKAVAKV
procedure-summary: CDK1 ELISA kinase assay (phospho-Rb ser 795 detection)
Type: biochemical
conditions: In Vitro Enzyme Assays, read-out: CDK1 IC50
pIC50: −log10 of the molar value.

[
  {
    "compound": "CCN1CCN(c2ccc(N/C=C3\\C(=O)NC(=O)c4ccc(I)cc43)cc2)CC1 [Example 393]",
    "pIC50": "< 4.30"
  },
  {
    "compound": "O=C1NC(=O)c2ccc(Br)cc2/C1=C/NCc1ccc(OC(F)F)c(O)c1 [Example 180]",
    "pIC50": "< 4.30"
  },
  {
    "compound": "NC(=O)C1CCN(c2ccc(N/C=C3\\C(=O)NC(=O)c4ccc(I)cc43)cc2)CC1 [Example 430]",
    "pIC50": 4.71
  },
  {
    "compound": "CN(CCN1CCCCC1)c1ccc(N/C=C2\\C(=O)NC(=O)c3ccc(Br)cc32)cc1 [Example 256]",
    "pIC50": "< 4.30"
  },
  {
    "compound": "CCCOc1ccc(CN/C=C2\\C(=O)N(O)C(=O)c3ccccc32)cc1O [Example 230]",
    "pIC50": "< 4.30"
  },
  {
    "compound": "CC1CN(c2ccc(N/C=C3\\C(=O)NC(=O)c4ccc([N+](=O)[O-])cc43)cc2)CC(C)N1 (stereo not shown) [Example 235]",
    "pIC50": 4.60
  },
  {
    "compound": "O=C1NC(=O)c2ccc(I)cc2/C1=C/Nc1ccc(CN2CCC[C@H]2CO)cc1 [Example 376]",
    "pIC50": "< 4.30"
  },
  {
    "compound": "CN1CCN(c2ccc(N/C=C3\\C(=O)NC(=O)c4ccc(F)cc43)cc2)CC1 [Example 70]",
    "pIC50": 4.77
  },
  {
    "compound": "CN1CCN(c2ccc(N/C=C3\\C(=O)NCc4ccccc43)cc2)CC1 [Example 2]",
    "pIC50": "< 4.54"
  },
  {
    "compound": "CN1CCN(c2ccc(N/C=C3\\C(=O)NC(=O)c4ccccc43)cc2)CC1 [compound 4]",
    "pIC50": "< 4.55"
  }
]
